All figures here come from patent US11667602B2.

- procedure.summary: Human Liver Microsomal Stability (Test C)
- Type: in vitro ADME
- test.context: human, liver microsomes
This listing pairs compounds with measured microsomal CLint.

Known results for compounds:
input.smiles | microsomal CLint
COc1cc(C#N)c(O[C@H]2CC[C@@](C)(C(=O)O)CC2)cc1C(=O)N[C@@H]1[C@H]2CC[C@H](C2)[C@@H]1C(=O)NCC1CC1 | < 3 µL/min/mg
COc1cc(F)c(Cc2cn[nH]c2)cc1C(=O)N[C@@H]1[C@H]2CC[C@H](C2)[C@@H]1C(=O)Nc1cccc(S(=O)(=O)C(F)(F)F)c1 | > 300 µL/min/mg

Task: So what does the record say about microsomal CLint for COc1cc(C#N)c(O[C@H]2CC[C@@](C)(C(=O)O)CC2)cc1C(=O)N[C@@H]1[C@H]2CC[C@H](C2)[C@@H]1C(=O)NC12CC(F)(C1)C2 ?
Output: < 5.1 µL/min/mg

* * *

- procedure.summary: Human Liver Microsomal Stability (Test C)
- Type: in vitro ADME
- test.context: human, liver microsomes
measurement.kind: microsomal CLint (µL/min/mg)

Known microsomal CLint results, listed for orientation:
compound | microsomal CLint, µL/min/mg
COc1cc(F)c(OC2CCC(C)(C(=O)O)CC2)cc1C(=O)NC1CC(OC)CC1C(=O)Nc1cccc(S(=O)(=O)C(F)(F)F)c1 (single isomer, unassigned) | 16
CCC(C)CNC(=O)C1C2CCC(C2)C1NC(=O)c1cc(OC2CCC(C(=O)O)CC2)c(F)cc1OC (single isomer, unassigned) | 14
COc1cc(F)c(O[C@H]2CC[C@@H](C(=O)O)CC2)cc1C(=O)NC1=C(C(=O)Nc2ccc(F)c(C(F)(F)F)c2)CCCC1 | 16
COc1cc(F)c(O[C@H]2CC[C@@H](C(=O)O)CC2)cc1C(=O)N[C@@H]1[C@H]2CC[C@H](C2)[C@@H]1C(=O)Nc1cc(C#N)cc(C(F)(F)F)c1 | 20
COc1cc(F)c(-c2ccc(S(N)(=O)=O)cc2)cc1C(=O)N[C@@H]1[C@H]2CC[C@H](C2)[C@@H]1C(=O)Nc1cccc(S(=O)(=O)C(F)(F)F)c1 | 74

A. COc1ccc(O[C@H]2CC[C@@H](C(=O)O)CC2)cc1C(=O)N[C@@H]1[C@H]2CC[C@H](C2)[C@@H]1C(=O)Nc1cccc(S(=O)(=O)C(F)(F)F)c1
B. COc1cc(F)c(O[C@H]2CC[C@@](C)(C(=O)O)CC2)cc1C(=O)NC1C(C(=O)Nc2cccc(S(=O)(=O)C(F)(F)F)c2)CC2OCOC21 (single isomer, unassigned)
C. COc1cc(F)c(O[C@H]2CC[C@@](C)(C(=O)O)CC2)cc1C(=O)N[C@@H]1CCC[C@@H]1C(=O)NCC(C)(C)C
Task: Please rank these compounds by microsomal CLint in descending order. Form entry: labels listed in requested order.
Output: A, B, C
(A: 37 µL/min/mg, B: 12 µL/min/mg, C: 4.9 µL/min/mg)

* * *

- measured.on: human RXFP1 (Homo sapiens, UniProt Q9HBX9)
- Sequence (Q9HBX9 1-757): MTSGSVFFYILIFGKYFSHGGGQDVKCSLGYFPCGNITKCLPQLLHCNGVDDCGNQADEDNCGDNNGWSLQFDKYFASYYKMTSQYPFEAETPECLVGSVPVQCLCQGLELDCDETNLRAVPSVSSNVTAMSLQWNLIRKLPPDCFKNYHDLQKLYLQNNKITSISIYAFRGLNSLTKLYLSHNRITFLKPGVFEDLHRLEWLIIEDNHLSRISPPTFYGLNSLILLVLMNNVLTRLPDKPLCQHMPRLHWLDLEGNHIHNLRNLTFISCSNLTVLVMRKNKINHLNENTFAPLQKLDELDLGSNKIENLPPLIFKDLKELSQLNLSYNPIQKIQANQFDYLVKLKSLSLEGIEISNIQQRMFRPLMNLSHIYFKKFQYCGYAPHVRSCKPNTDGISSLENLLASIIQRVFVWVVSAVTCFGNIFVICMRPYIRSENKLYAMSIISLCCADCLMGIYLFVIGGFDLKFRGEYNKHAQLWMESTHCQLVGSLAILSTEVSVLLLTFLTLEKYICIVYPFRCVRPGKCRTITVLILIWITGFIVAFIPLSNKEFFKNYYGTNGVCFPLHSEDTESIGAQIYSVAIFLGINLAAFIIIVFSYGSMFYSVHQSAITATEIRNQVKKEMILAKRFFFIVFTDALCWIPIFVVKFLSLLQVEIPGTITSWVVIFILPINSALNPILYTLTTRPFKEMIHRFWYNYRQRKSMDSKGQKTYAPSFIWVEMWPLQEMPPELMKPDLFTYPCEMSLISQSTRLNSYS
- procedure.summary: RXFP1 Hu cAMP (Test A)
- Assay type: cell-based
- Set-up: expressed in transfected cells; host or cells: Jump-In T-REx CHO-K1 cells (ThermoFisher), induced with 10 ng/ml doxycycline for 24 h
- test.context: RXFP1 Hu cAMP
measurement.kind: Test A Sinf (%)

compound | measured.on | unit.annotation | Test A Sinf
COc1cc(C#N)c(O[C@H]2CC[C@@](C)(C(=O)O)CC2)cc1C(=O)N[C@@H]1[C@H]2CC[C@H](C2)[C@@H]1C(=O)NC12CC3C[C@H](C1)C[C@H](C3)C2 | human RXFP1 (Homo sapiens, UniProt Q9HBX9) | % | 111

I. COc1cc(C#N)c(O[C@H]2CC[C@@](C)(C(=O)O)CC2)cc1C(=O)N[C@@H]1[C@H]2CC[C@H](C2)[C@@H]1C(=O)NC1(C)CC1
II. COc1cc(F)c(OC2CCC(C(=O)O)CC2)cc1C(=O)N[C@H]1[C@@H](C(=O)Nc2cccc(S(=O)(=O)C(F)(F)F)c2)[C@@H]2C=C[C@H]1C2 (mixture of isomers)
Task: Between I and II , whose measured Test A Sinf reads higher? Pick one; state its label.
Output: I

* * *

- measured.on: human RXFP1 (Homo sapiens, UniProt Q9HBX9)
- procedure.summary: RXFP1 Hu cAMP (Test A)
- Type: cell-based
- Set-up: expressed in transfected cells; host or cells: Jump-In T-REx CHO-K1 cells (ThermoFisher), induced with 10 ng/ml doxycycline for 24 h
- test.context: RXFP1 Hu cAMP; read-out: Test A EC50
pEC50: −log10 of the molar value.
measurement.kind: pEC50

Here are 2 compounds together with their reported answers.
compound | pEC50
COc1cc(F)c(O[C@H]2CC[C@@](C)(C(=O)O)CC2)cc1C(=O)N[C@@H]1[C@@H](O)[C@@H](O)C[C@@H]1C(=O)Nc1cccc(S(=O)(=O)C(F)(F)F)c1 (racemic) [Example 394] | < 4.40
COc1cc(F)c(O[C@H]2CC[C@@](C)(C(=O)O)CC2)cc1C(=O)NC1COCC1C(=O)Nc1cccc(S(=O)(=O)C(F)(F)F)c1 (single isomer, unassigned) [Example 560] | < 4.40

Task: Recorded pEC50 for COc1cc(C#N)c(O[C@H]2CC[C@@](C)(C(=O)O)CC2)cc1C(=O)N[C@@H]1[C@H]2CC[C@H](C2)[C@@H]1C(=O)NCC1(O)CCC(F)(F)CC1 [Example 101] , please?
Output: < 5.46

* * *

- measured.on: human RXFP1 (Homo sapiens)
- procedure.summary: RXFP1 Hu cAMP (Test A)
- Type: cell-based
- Parameters: expressed in transfected cells; host or cells: Jump-In T-REx CHO-K1 cells (ThermoFisher), induced with 10 ng/ml doxycycline for 24 h
- test.context: RXFP1 Hu cAMP; read-out: Test A EC50
pEC50: −log10 of the molar value.
measurement.kind: pEC50

compound | measurement.kind | value.measured
COc1cc(F)c(O[C@H]2CC[C@@H](C(=O)O)CC2)cc1C(=O)N[C@@H]1[C@H]2CC[C@H](C2)[C@@H]1C(=O)NC1CCC1 | pEC50 | < 5.66
COc1cc(F)c(-c2ccc(CCS(N)(=O)=O)cc2)cc1C(=O)N[C@H]1[C@H]2CC[C@H](C2)[C@H]1C(=O)Nc1cccc(S(=O)(=O)C(F)(F)F)c1 (single isomer, unassigned) [Example 327] | pEC50 | < 4.40
COc1cc(F)c(O[C@H]2CC[C@@](C)(C(=O)O)CC2)cc1C(=O)NC1C(C(=O)Nc2cccc(S(=O)(=O)C(F)(F)F)c2)CC(O)C1O (single isomer, unassigned) | pEC50 | < 4.40

Now, please, on to the next compound.
Task: Quick check: pEC50 of COc1cc(F)c(O[C@H]2CC[C@@](CO)(C(=O)O)CC2)cc1C(=O)NC1COCC1C(=O)NCC1(C)CCC1 (single isomer, unassigned) ?
Output: < 4.40

* * *

- procedure.summary: Human Plasma Protein Binding (Test B)
- Type: in vitro ADME
- test.context: fraction unbound (fu)
measurement.kind: Test B Human Plasma Protein Binding (% free)

1. COc1cc(C#N)c(O[C@H]2CC[C@@](C)(C(=O)O)CC2)cc1C(=O)N[C@@H]1[C@H]2CC[C@H](C2)[C@@H]1C(=O)NCC1(C)CCCCCC1
2. COc1cc(F)c(O[C@H]2CC[C@@](C)(C(=O)O)CC2)cc1C(=O)Nc1nn2cccnc2c1C(=O)NCC1(C)CCC1
3. COc1cc(C#N)c(O[C@H]2CC[C@@](C)(C(=O)O)CC2)cc1C(=O)N[C@@H]1[C@H]2CC[C@H](C2)[C@@H]1C(=O)NCc1nccc(C(F)F)n1
Task: Ranking request: Test B Human Plasma Protein Binding (% free), max to min, items above. Enter labels, ranked according to the request.
Output: 3, 1, 2
(3: 17 % free, 1: 2.5 % free, 2: 0.19 % free)
